Entries and their measured concentration at 2 h follow.
Assay Details: Plasma concentration after 2 hours at 100mg/kg ip dose (10mg/ml solution in 15% Cremophor)
Assay type: ADME, organism-based
Condition Info: mouse, read-out: Conc_plasma
Result Type: concentration at 2 h (µM)

>>> measured_number("CCOC(=O)N1CCC(CN(Cc2ccc(Cl)cc2)Cc2ccc([N+](=O)[O-])s2)C1 (configuration not stated)")
22.9
>>> measured_number("CCCCCNC(=O)N1CCC(CN(Cc2ccc(Cl)cc2)Cc2ccc([N+](=O)[O-])s2)C1 (configuration not stated)")
15.3

----------
Assay Details: Plasma concentration after 1 hour at 10mg/kg ip dose (10mg/ml suspension in 10%DMSO/10%Tween80)
Type: ADME, organism-based
Condition Info: mouse, read-out: Conc_plasma
Reported concentration at 1 h values follow for various molecules
Result Type: concentration at 1 h (nM)

>>> measured_number("CCOC(=O)N1CCC(CN(Cc2ccc(Cl)cc2)Cc2ccc([N+](=O)[O-])s2)C1 (configuration not stated) [SR9009]")
1400
>>> measured_number("CCCCCNC(=O)N1CCC(CN(Cc2ccc(Cl)cc2)Cc2ccc([N+](=O)[O-])s2)C1 (configuration not stated) [SR9011]")
1550

----------
Assay Details: Brain concentration after 8 hours at 10mg/kg ip dose (10mg/ml suspension in 10%DMSO/10%Tween80)
Format: ADME, organism-based
Condition Info: mouse, brain, read-out: Conc_brain
Result Type: concentration at 8 h

>>> result("CCOC(=O)N1CCC(CN(Cc2ccc(Cl)cc2)Cc2ccc([N+](=O)[O-])s2)C1 (stereo unspecified) [SR9009]")
"110 nM"

----------
Assay Details: Brain concentration after 2 hours at 10mg/kg ip dose (10mg/ml suspension in 10%DMSO/10%Tween80)
Type: ADME, organism-based
Condition Info: mouse, read-out: Conc_brain
Result Type: concentration at 2 h (nM)

>>> measured_number("CCCCCNC(=O)N1CCC(CN(Cc2ccc(Cl)cc2)Cc2ccc([N+](=O)[O-])s2)C1 (stereo unspecified) [SR9011]")
240

----------
Assay Details: Plasma concentration after 2 hours at 10mg/kg ip dose (10mg/ml suspension in 10%DMSO/10%Tween80)
Type: ADME, organism-based
Condition Info: mouse, read-out: Conc_plasma
Result Type: concentration at 2 h (nM)

>>> measured_number("CCCCCNC(=O)N1CCC(CN(Cc2ccc(Cl)cc2)Cc2ccc([N+](=O)[O-])s2)C1 (stereo unspecified)")
530
